molecular target: Alpha-2C adrenergic receptor (Homo sapiens) (UniProt P18825); assay: compounds altering alpha2C-coupled GIRK flux – cell-based, HEK293 alpha2C/GIRK1/2, thallium flux, primary screen (AID 624); details: thallium flux BTC fluorescence, at 10 µM, actives lie on both sides;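 also: slope of fluorescence ratio to pre-addition baseline per second over 15 to 24 s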
Sequence (P18825 whole entry, looked up): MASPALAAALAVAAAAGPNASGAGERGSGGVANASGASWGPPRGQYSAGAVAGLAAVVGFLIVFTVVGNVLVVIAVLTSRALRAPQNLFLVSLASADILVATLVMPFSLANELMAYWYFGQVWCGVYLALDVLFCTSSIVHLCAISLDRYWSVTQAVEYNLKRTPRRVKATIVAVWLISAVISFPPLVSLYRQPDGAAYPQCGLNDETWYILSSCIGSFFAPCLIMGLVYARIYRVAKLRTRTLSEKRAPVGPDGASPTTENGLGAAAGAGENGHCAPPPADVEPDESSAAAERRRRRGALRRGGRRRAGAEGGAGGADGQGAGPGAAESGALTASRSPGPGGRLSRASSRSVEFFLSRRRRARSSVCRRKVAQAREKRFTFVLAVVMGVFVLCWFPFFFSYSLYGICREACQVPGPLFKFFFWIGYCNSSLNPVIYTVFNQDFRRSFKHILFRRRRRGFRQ
Activity calls are given as the source filed them.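 The calls were made as follows: active = fluorescence slope after compound addition differing from the mean of all screened samples at 99.7% confidence, in either direction; inactive = the rest.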
quantity.measured: slope

Below: 8 compounds and their reported slope.
-- ask Given the compound Cc1ccc(Cn2c(=N)c(C(=O)NCc3ccco3)cc3c(=O)n4ccccc4nc32)cc1 , what is its reported slope?
-- reply 0.00216 (inactive)

-- ask Could you do the same for COc1ccc(NC(=O)C2CCCN2S(=O)(=O)c2cccc3cccnc23)c(OC)c1 (centres undefined) , please?
-- reply 0.00652 (inactive)

-- ask Could you do the same for CCn1cc(C2Nc3ccccc3C(=O)N2O)c(C)n1 (centres undefined) , please?
-- reply 0.0057 (inactive)

-- ask Could you do the same for CC(=O)c1coc2ccc(OCC(=O)O)cc12 , please?
-- reply 0.00474 (inactive)

-- ask Could you do the same for Cc1cc(C(=O)NCCCN2CCOCC2)n(-c2ccccc2)n1 , please?
-- reply 0.00682 (inactive)

-- ask Could you do the same for COc1ccc(S(=O)(=O)CCC(=O)O)cc1 , please?
-- reply 0.00748 (inactive)

-- ask Could you do the same for CCCn1nc(NC(=O)c2cccs2)c2cc3cc(OC)ccc3nc21 , please?
-- reply 0.00675 (inactive)

-- ask Could you do the same for CN(Cc1ccccc1)Cc1nc2c(c(=O)n(C)c(=O)n2C)n1Cc1ccc(Cl)cc1 , please?
-- reply 0.00317 (inactive)

Continuing:
-- ask Given the compound O=C(c1ccc2nc(N3CCCCC3)sc2c1)N1CCN(c2ccccn2)CC1 , what is its reported slope?
-- reply 0.00632 (inactive)

-- ask Could you do the same for CC(CCc1ccccc1)NC(=O)CSc1nc(N)cc(N)n1 (centres undefined) , please?
-- reply 0.00545 (inactive)

-- ask Could you do the same for O=C(Nc1cnn(Cc2ccc(Cl)cc2Cl)c1)c1noc2c1CCCC2 , please?
-- reply 0.00522 (inactive)

-- ask Could you do the same for CCCN1C2CCCC1CC(NC(=O)c1ccccc1F)C2 (centres undefined) , please?
-- reply 0.00485 (inactive)

-- ask Could you do the same for CCOC(=O)c1cccc(NC(=O)c2ccco2)c1 , please?
-- reply 0.00541 (inactive)

-- ask Could you do the same for CCC(C)(C)n1nnnc1C(c1cc2cc(C)ccc2[nH]c1=O)N1CCCC1 (centres undefined) , please?
-- reply 0.00689 (inactive)

-- ask Could you do the same for COc1ccc(N2CCN(c3oc(COc4ccccc4Cl)nc3C#N)CC2)cc1 , please?
-- reply 0.00642 (inactive)

-- ask Could you do the same for CCSCCNC(=O)c1cc(-n2cnnc2)ccc1Cl , please?
-- reply 0.0037 (inactive)

-- ask Could you do the same for O=C(Nc1ccc(N2CCCC2)cc1)c1cccc(F)c1 , please?
-- reply 0.0066 (inactive)

-- ask Could you do the same for COc1ccccc1N(CN1CCCC1=O)C(=O)c1c(F)cccc1Cl , please?
-- reply 0.0058 (inactive)

-- ask Could you do the same for COCCCNC(=O)CSc1ccc(Cl)cc1 , please?
-- reply 0.00511 (inactive)

-- ask Could you do the same for CCn1cc(SCC(=O)Nc2cc(C)on2)c2ccccc21 , please?
-- reply 0.00702 (inactive)

-- ask Could you do the same for Nc1nc(NCc2ccco2)nn1-c1ccccc1 , please?
-- reply 0.00567 (inactive)

-- ask Could you do the same for CCOC(=O)C1CCN(c2cc(C)nc3cc(-c4cccc(F)c4)nn23)CC1 , please?
-- reply 0.00523 (inactive)

-- ask Could you do the same for O=C(c1ccc2c(c1)c(=O)oc1ccccc12)N1CCCCC1 , please?
-- reply 0.00354 (inactive)

-- ask Could you do the same for CCN(CC(=O)Nc1c(C(=O)OC)[nH]c2ccccc12)c1ccc2c(c1)OCO2 , please?
-- reply 0.00578 (inactive)
